B1: CDC25A (parent)
chain: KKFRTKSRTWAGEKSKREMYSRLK

variants of: B1; test: protein stability index of a GFP-peptide fusion (GPS, HEK-293T) (PSI 1-6); higher = more stable; settings: c terminus: a fixed tail appended;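 note: lentivirally expressed fusions sorted by FACS into six bins by GFP to DsRed ratio, PSI derived from sequencing read proportions per bin multiplied by bin number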
outcomeMeasure: protein stability index
Just the number, please, no unit after it.

Below: 2 variants and their reported protein stability index.
# sequenceText, outcomeMeasure, reportedMeasurement
data = [
    ("KKFRTKSRTWAGEKSKREMYDRLK", "protein stability index", 2.95),
    ("KKFRTKSRTWAGEKSKRLMYSRLK", "protein stability index", 2.64),
]

// KKFRTKSRTWAGHKSKREMYSRLK : protein stability index value = 3.1

// KKFRTKSRTWAGEKSKSEMYSRLK : protein stability index value = 3.08
